Taken from ChEMBL document CHEMBL1138876.

Assay: Partition co-efficient, log P by pH metric titration
Format: physicochemical
Conditions: octanol/water
Binary call on logP with cut-off 0.5: strictly below means condition met, and equality or higher means condition not met.

| Molecule | Classification |
| --- | --- |
| CC(C)(C)[C@H]1CC[C@@H](C(=O)N2CCCC2)N1C(=O)CCCc1cccnc1 | condition not met |
| O=C(NCc1ccncc1)C1=CCCC1C(=O)N1CCCC1 (stereo unspecified) | condition met |
| O=C(NCc1cccnc1)C1=CCCC1C(=O)N1CCCC1 (stereo unspecified) | condition met |
| O=C([C@@H]1CCCN1C(=O)Cc1cccnc1)N1CCCC1 | condition met |
| CC(C)(C)[C@H]1CC[C@@H](C(=O)N2CCCC2)N1C(=O)CCc1cccnc1 | condition not met |
| O=C(NCc1ccccn1)C1=CCCC1C(=O)N1CCCC1 (stereo unspecified) | condition met |
| O=C(NCCc1cccnc1)C1=CCCC1C(=O)N1CCCC1 (stereo unspecified) | condition not met |
| O=C([C@@H]1CCCN1C(=O)c1cccnc1)N1CCCC1 | condition met |
| O=C([C@@H]1CCCN1C(=O)CCc1cccnc1)N1CCCC1 | condition met |
| O=C(NCCc1ccccn1)C1=CCCC1C(=O)N1CCCC1 (stereo unspecified) | condition not met |
